We begin with a simple list: items and their reported selectivity ratio.
assay: Selectivity index, ratio of CC50 for human mock-infected MT4 cells to EC50 for HIV1 3B harboring reverse transcriptase K103N mutant infected in human MT4 cells; format: toxicity, cell-based; conditions: MT4 cells (mock-infected for CC50, HIV-1 infected for EC50)

Worked examples follow.
> print(dat)
                                 cpd.smiles  data.value
1  CCOC(=O)c1ccc(CN2CCC(Nc3nc(Oc4c(C)cc(C#N)cc4C)c4sccc4n3)CC2)cc1       > 446
2  CC(=O)NS(=O)(=O)c1ccc(CN2CCC(Nc3nc(Oc4c(C)cc(C#N)cc4C)c4sccc4n3)CC2)cc1       > 369
3  Cc1cc(C#N)cc(C)c1Oc1nc(NC2CCN(Cc3cccc(C(N)=O)c3)CC2)nc2ccsc12      > 4710

Query block: Supply measured selectivity ratio of `Cc1cc(C#N)cc(C)c1Oc1nc(NC2CCN(Cc3cccc(S(N)(=O)=O)c3)CC2)nc2ccsc12` in your reply.
Result block: > 30100
